procedure-details: NCI Yeast Anticancer Drug Screen. Data for the mec2-1 strain (AID 157)
measurement-context: S. cerevisiae mec2-1 strain, at 50.0 µM (retest, dose inferred, filed as 5.0), hits give high values
About 79,000 compounds went through this panel and 15% of them were active in at least one assay; those are over-represented in the sample as a whole.
Rule: growth inhibition of 20% or more gives met; anything lower gives not met.

These recorded examples may help you get a feel for the data.
molecule=O=C1/C(=C/N2CCN(c3ccccc3)CC2)Cc2c(Cl)cccc21 qualitative_label=met
molecule=Nc1cc(Cl)ccc1C(=O)O qualitative_label=met

Prompt line: Quick check, growth inhibition >= 20%? Nc1ccc(-c2ccc(Cl)cc2)cc1
Response line: met

Prompt line: Thanks! And CCn1c2ccc([N+](=O)[O-])cc2c2c([N+](=O)[O-])c(-n3cccc3)ccc21 ?
Response line: not met
